Sourced from PubChem BioAssay (Tox21)

- study_system: Nuclear receptor subfamily 1 group I member 2 (Homo sapiens)
- procedure_summary: Human pregnane X receptor (PXR) activation by small molecules, qHTS assay (AID 1346985); further: nearly all actives have a fitted effect of over 40% in size
- study_conditions: DPX-2 HepG2 CYP3A4-luciferase, 24 h; series mostly up to 38.3 µM
Records with an inconclusive call do not appear. The source made the active and inactive calls. The call rests on the fitted dose curve; in most records, active means well fitted activation curve with a large enough effect in the repeat runs; inconclusive means weak or mixed curves; inactive means flat fitted curve, though single readings scatter.
Returns: one label drawn from y for active, n for inactive

Task: Name the outcome recorded for CCCCC/C=C\CCC(=O)N[C@H]1[C@H](Oc2c3cc4cc2Oc2ccc(cc2Cl)[C@@H](O[C@@H]2O[C@H](CO)[C@@H](O)[C@H](O)[C@H]2NC(C)=O)[C@@H]2NC(=O)[C@H](NC(=O)[C@@H]4NC(=O)[C@H]4NC(=O)[C@@H](Cc5ccc(c(Cl)c5)O3)NC(=O)[C@H](N)c3ccc(O)c(c3)Oc3cc(O)cc4c3)c3ccc(O)c(c3)-c3c(O[C@H]4O[C@H](CO)[C@@H](O)[C@H](O)[C@@H]4O)cc(O)cc3[C@@H](C(=O)O)NC2=O)O[C@H](CO)[C@@H](O)[C@@H]1O in the assay.
Output: n

Task: Outcome? NC(=O)c1ccc[n+]([C@@H]2O[C@H](COP(=O)([O-])OP(=O)(O)OC[C@H]3O[C@@H](n4cnc5c(N)ncnc54)[C@H](O)[C@@H]3O)[C@@H](O)[C@H]2O)c1
Output: n

Task: What classification did S=C=Nc1ccc(N=C=S)cc1 end up with in this test?
Output: n

Task: # outcome recorded in this test, key = C=CCNC1=C2C[C@@H](C)C[C@H](OC)[C@H](O)[C@@H](C)/C=C(\C)[C@H](OC(N)=O)[C@@H](OC)/C=C\C=C(/C)C(=O)NC(=CC1=O)C2=O
Output: y

Task: Just curious, what result did Nc1ccc(S(=O)(=O)Nc2ncccn2)cc1 get here?
Output: n
